- tested-target: feline Kokumi taste receptor (f-CaSR)
- measurement-description: feline Kokumi taste receptor assay (f-CaSR), agonistic activity of isolated samples
- reported-conditions: isolated samples from hydrolysate T648
Where a SMILES comes first, the peptide text is derived from it. [ ]: non-standard residue; d: D form. pS = N[C@@H](COP(=O)(O)O)C(=O)O
metric: pEC50
Here pEC50 is given on a logarithmic scale as minus log10 of the concentration in mol/L.

Request: Quick one: pEC50 of CC(C)C(NC(=O)C(N)CC(=O)O)C(=O)NC(CCC(=O)O)C(=O)O (stereo not drawn) [BC 01, Asp-Val-Glu] (H-Asp-Val-Glu-OH; configuration not given here) ?
Result: 2.20

Request: Quick one: pEC50 of CC[C@H](C)[C@H](NC(=O)[C@@H](N)CC(=O)O)C(=O)NCC(=O)N[C@@H](COP(=O)(O)O)C(=O)N[C@@H](CCC(=O)O)C(=O)N[C@@H](COP(=O)(O)O)C(=O)N[C@H](C(=O)N[C@@H](CCC(=O)O)C(=O)N[C@@H](CC(=O)O)C(=O)N[C@@H](CCC(N)=O)C(=O)N[C@@H](C)C(=O)O)[C@@H](C)O [BC 10] (H-DIG[pS]E[pS]TEDQA-OH; N-terminus and C-terminus assumed) ?
Result: 2.70

Request: Quick one: pEC50 of CC[C@H](C)[C@H](NC(=O)[C@@H](N)CCC(=O)O)C(=O)N[C@H](C(=O)N1CCC[C@H]1C(=O)N[C@@H](CC(N)=O)C(=O)N[C@@H](COP(=O)(O)O)C(=O)N[C@@H](C)C(=O)N[C@@H](CCC(=O)O)C(=O)N[C@@H](CCC(=O)O)C(=O)O)C(C)C [BC 09, Glu-Ile-Val-Pro-Asn-pSer-Ala-Glu-Glu] (H-EIVPN[pS]AEE-OH; N-terminus and C-terminus assumed) ?
Result: 2.50

Request: Quick one: pEC50 of CC[C@H](C)[C@H](N)C(=O)NCC(=O)N[C@@H](COP(=O)(O)O)C(=O)N[C@@H](CCC(=O)O)C(=O)N[C@@H](COP(=O)(O)O)C(=O)N[C@H](C(=O)N[C@@H](CCC(=O)O)C(=O)N[C@@H](CC(=O)O)C(=O)N[C@@H](CCC(N)=O)C(=O)N[C@@H](C)C(=O)O)[C@@H](C)O [BC 08] (H-IG[pS]E[pS]TEDQA-OH; N-terminus and C-terminus assumed) ?
Result: 2.70

Request: Quick one: pEC50 of CC[C@H](C)[C@H](N)C(=O)NCC(=O)N[C@@H](COP(=O)(O)O)C(=O)N[C@@H](CCC(=O)O)C(=O)N[C@@H](COP(=O)(O)O)C(=O)N[C@H](C(=O)N[C@@H](CCC(=O)O)C(=O)N[C@@H](CC(=O)O)C(=O)N[C@@H](CCC(N)=O)C(=O)O)[C@@H](C)O [BC 06, Ile-Gly-pSer-Glu-pSer-Thr-Glu-Asp-Gln] (H-IG[pS]E[pS]TEDQ-OH; N-terminus and C-terminus assumed) ?
Result: 2.70

---

Answer each item with its documented pEC50.
- tested-target: feline CaSR (Felis catus, UniProt A0ABI7YY68)
- Sequence (A0ABI7YY68 entry or part of it): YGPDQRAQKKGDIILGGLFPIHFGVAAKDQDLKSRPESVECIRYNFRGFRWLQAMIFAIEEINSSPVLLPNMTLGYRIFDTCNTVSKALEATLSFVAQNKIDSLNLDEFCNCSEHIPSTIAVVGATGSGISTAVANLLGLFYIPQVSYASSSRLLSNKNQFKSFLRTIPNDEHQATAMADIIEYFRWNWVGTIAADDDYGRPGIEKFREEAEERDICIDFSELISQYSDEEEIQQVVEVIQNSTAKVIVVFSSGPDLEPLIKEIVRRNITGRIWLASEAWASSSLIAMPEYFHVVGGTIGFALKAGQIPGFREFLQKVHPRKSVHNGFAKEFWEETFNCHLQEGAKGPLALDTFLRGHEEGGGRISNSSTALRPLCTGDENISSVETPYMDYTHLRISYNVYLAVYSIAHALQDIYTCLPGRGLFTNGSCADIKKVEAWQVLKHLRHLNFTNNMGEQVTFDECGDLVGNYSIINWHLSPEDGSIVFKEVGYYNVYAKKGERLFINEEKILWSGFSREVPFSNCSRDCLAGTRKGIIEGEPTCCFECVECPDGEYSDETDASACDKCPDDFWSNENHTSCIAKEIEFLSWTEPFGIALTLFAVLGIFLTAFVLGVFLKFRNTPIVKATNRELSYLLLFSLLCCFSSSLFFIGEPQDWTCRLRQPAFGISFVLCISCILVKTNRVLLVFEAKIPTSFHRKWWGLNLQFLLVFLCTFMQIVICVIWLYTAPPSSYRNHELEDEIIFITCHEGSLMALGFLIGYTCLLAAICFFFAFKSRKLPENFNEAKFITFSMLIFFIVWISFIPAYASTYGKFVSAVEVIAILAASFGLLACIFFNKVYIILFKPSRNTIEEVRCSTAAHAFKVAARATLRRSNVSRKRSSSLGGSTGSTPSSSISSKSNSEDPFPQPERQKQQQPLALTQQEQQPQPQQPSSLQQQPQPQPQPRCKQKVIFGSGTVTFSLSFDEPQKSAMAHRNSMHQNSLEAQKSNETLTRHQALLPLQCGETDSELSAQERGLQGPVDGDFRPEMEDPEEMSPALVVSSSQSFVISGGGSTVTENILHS
- measurement-description: HEK T-Rex/natClytin-fCaSR luminescence assay, activation of feline CaSR
- Format: cell-based
- reported-conditions: HEK T-Rex/natClytin-fCaSR cells, calcium-free Tyrode's buffer; ≈ values are model estimates without standard error; read-out: EC50 ± Std Error
- Description: The cells used for the assays were HEK293 derived HEK T-Rex/natClytin-fCaSR cells. For the assays, the cells were plated on […] culture plates with a clear bottom for reading the luminescence in the wells. […] 20 ul of each ligand at a specified concentration was injected on the cells and the response of the cells was measured for 90 sec at 1.94 sec intervals. The resulting curves were analyzed and reduced using the software provided by Molecular Devices, SoftMax Pro (version 5.4.1). […]
Where a SMILES comes first, the peptide text is derived from it. [ ]: non-standard residue; d: D form. pS = N[CH](COP(=O)(O)O)C(=O)O
Here pEC50 is given on a logarithmic scale as minus log10 of the concentration in mol/L.

Request: Quick one: pEC50 of N[C@@H](CCC(=O)N[C@@H](CS)C(=O)NCC(=O)O)C(=O)O [GSH, reference compound] ?
Result: 2.17

Request: Quick one: pEC50 of CC(C)C(NC(=O)C(N)COP(=O)(O)O)C(=O)NC(COP(=O)(O)O)C(=O)O (stereo not drawn) [pSer-Val-pSer] (H-[pS]-Val-[pS]-OH; configuration not given here) ?
Result: 2.58
